Below are IC50 values measured for 15-PGDH (Homo sapiens (Human)).
Metric name: IC50 (nM)

Challenge: Would you kindly share the measured IC50 for O=C1NC(=O)/C(=C/c2cccc(OCCc3ccccc3)c2Cl)S1 [Derivative 73] ?
Response given: 122

Challenge: Would you kindly share the measured IC50 for O=C1NC(=O)/C(=C/c2cccc(OCCOC3CCCCC3)c2Cl)S1 [Derivative 110] ?
Response given: 233

Challenge: Would you kindly share the measured IC50 for COc1cc(OCCC2CCCCC2)ccc1/C=C1\SC(=O)NC1=O [Derivative 60] ?
Response given: 3560

Challenge: Would you kindly share the measured IC50 for O=C1NC(=O)/C(=C/c2ccc(OCCNC3CCCCC3)cc2)S1 [Derivative 7] ?
Response given: 2610

a = O=C1NC(=O)/C(=C/c2ccc([N+](=O)[O-])c(OCCC3CCCCC3)c2)S1 [Derivative 79]
b = O=C1NC(=O)/C(=C/c2ccc(OC3CCCCC3)c(Cl)c2)S1 [Derivative 30]
c = O=C1NC(=O)/C(=C/c2ccc(OCc3ccc(-c4ccccc4)cc3)cc2)S1 [Derivative 76]
d = O=C1NC(=O)C(Cc2ccc(OCc3ccccc3)cc2)S1 (stereo not drawn) [Derivative 124]
e = O=C1NC(=O)C(Cc2ccc(OCc3ccccc3)cc2)S1 (stereo not drawn) [Derivative 116]
Challenge: Sort entries by IC50 from minimum to maximum value. Please list each label once, in the requested order.
Response given: b, c, d, a, e
(b: 48.9 nM, c: 814 nM, d: 1260 nM, a: 2820 nM, e: 5250 nM)

---

pIC50: −log10 of the molar value.
Below are pIC50 values measured for 15-PGDH (Homo sapiens (Human)).
Metric name: pIC50

Challenge: // fetch 15-PGDH (Homo sapiens (Human)) pIC50 for CCOc1cc(/C=C2\SC(=O)NC2=O)ccc1OCCC1CCCCC1 [Derivative 59]
Response given: 6.59

Challenge: // fetch 15-PGDH (Homo sapiens (Human)) pIC50 for O=C1NC(=O)C(Cc2ccc(OCCC3CCCC3)cc2)S1 (stereo not shown) [Derivative 118]
Response given: 5.66

Challenge: // fetch 15-PGDH (Homo sapiens (Human)) pIC50 for Cc1cc(CC2SC(=O)NC2=O)ccc1OCCC1CCCCC1 (stereo not shown) [Derivative 121]
Response given: 6.40

Challenge: // fetch 15-PGDH (Homo sapiens (Human)) pIC50 for O=C1NC(=O)/C(=C/c2cc(F)c(OCCC3CCCCC3)c(Cl)c2)S1 [Derivative 77]
Response given: 6.75

Challenge: // fetch 15-PGDH (Homo sapiens (Human)) pIC50 for O=C1NC(=O)/C(=C/c2ccc(OCCC3CCCC3)cc2)S1 [Derivative 24]
Response given: 6.94

P = O=C1NC(=O)/C(=C/c2ccc(OCCC3CCCCC3)cc2Cl)S1 [Derivative 18]
Q = O=C1NC(=O)/C(=C/c2ccc(OCCCc3ccccc3)cc2Cl)S1 [Derivative 87]
Challenge: pIC50 comparison. Which is larger, P or Q ? // output: label of the selected item
Response given: P

I = O=C1NC(=S)/C(=C/c2ccc(OCCC3CCCCC3)cc2)S1 [Derivative 13]
II = COc1ccc(/C=C2\SC(=O)NC2=O)cc1OCCc1cccs1 [Derivative 103]
Challenge: pIC50 comparison. Which is larger, I or II ? // output: label of the selected item
Response given: I
(I: 6.16, II: 5.78)

a = CC(C)OCCOc1ccc(/C=C2\SC(=O)NC2=O)cc1 [Derivative 1]
b = O=C1NC(=O)/C(=C/c2ccc(OCC3CCCCC3)cc2Cl)S1 [Derivative 96]
c = O=C1NC(=O)/C(=C/c2ccc(OCc3ccc4c(c3)OCO4)cc2)S1 [Derivative 29]
d = O=C1NC(=O)C(Cc2ccc(OCCCC3CCCCC3)c(Cl)c2)S1 (stereo not shown) [Derivative 122]
Challenge: Rank by pIC50 (largest to smallest). Please list each label once, in the requested order.
Response given: d, c, a, b

I = Cc1ncsc1CCOc1ccc(/C=C2\SC(=O)NC2=O)cc1 [Derivative 19]
II = O=C1NC(=O)/C(=C/c2cccc(OCC3CCCCC3)c2Cl)S1 [Derivative 63]
Challenge: I'm curious, which of these has a smaller pIC50 number: I or II ? // output: label of the selected item
Response given: I

1 = O=C1NC(=O)C(Cc2ccc(OCCC3CCCCC3)cc2)S1 (stereo not shown) [Derivative 113]
2 = O=C1NC(=O)/C(=C/c2ccc(OCC3CCCC3)cc2)S1 [Derivative 35]
Challenge: I'm curious, which of these has a smaller pIC50 number: 1 or 2 ? // output: label of the selected item
Response given: 1
(1: 6.01, 2: 7.37)

---

Below are IC50 values measured for 15-PGDH (Homo sapiens (Human)).
Metric name: IC50 (nM)

Challenge: Would you kindly share the measured IC50 for COc1cc(/C=C2\SC(=O)NC2=O)ccc1OCCc1cccs1 ?
Response given: 682

A = O=C1NC(=O)/C(=C/c2ccc(OCCc3ccccn3)cc2Cl)S1
B = O=C1NC(=O)C(Cc2ccc(OCC3CCCCC3)c(Cl)c2)S1 (centres unmarked)
Challenge: I'm curious, which of these has a smaller IC50 number: A or B ? // output: label of the selected item
Response given: B

P = O=C1NC(=O)/C(=C/c2ccc(OCc3ccsc3)cc2)S1
Q = O=C1NC(=O)/C(=C/c2ccc(OCCc3ccccc3)cc2Cl)S1
Challenge: IC50 comparison. Which is larger, P or Q ? // output: label of the selected item
Response given: P
(P: 392 nM, Q: 178 nM)

---

Below are pIC50 values measured for 15-PGDH (Homo sapiens (Human)).
pIC50: −log10 of the molar value.
Metric name: pIC50

P = O=C1NC(=O)C(Cc2ccc(OCC3CCCCC3)c(Cl)c2)S1 (single isomer, unassigned)
Q = O=C1NC(=O)C(Cc2ccc(OCCC3CCCC3)cc2)S1 (stereo not drawn) [Derivative 130]
R = O=C1NC(=O)/C(=C/c2ccc(OCCC3CCCCC3)c(C(F)(F)F)c2)S1
S = O=C1NC(=O)/C(=C/c2ccc(OCCCCC3CCCCC3)c(Cl)c2)S1
Challenge: Please rank everything listed above by pIC50, with the minimum value first. Please list each label once, in the requested order.
Response given: Q, P, R, S
(Q: 6.11, P: 6.90, R: 7.14, S: 7.58)

A = O=C1NC(=O)/C(=C/c2ccc(OCCc3cccs3)c(Cl)c2)S1
B = COc1cc(/C=C2\SC(=O)NC2=O)cc(Cl)c1OCCC1CCCCC1
Challenge: I'm curious, which of these has a smaller pIC50 number: A or B ? // output: label of the selected item
Response given: A
(A: 7.08, B: 7.30)

---

# Tgt: 15-PGDH (Homo sapiens (Human))
# Sequence (P15428 whole entry): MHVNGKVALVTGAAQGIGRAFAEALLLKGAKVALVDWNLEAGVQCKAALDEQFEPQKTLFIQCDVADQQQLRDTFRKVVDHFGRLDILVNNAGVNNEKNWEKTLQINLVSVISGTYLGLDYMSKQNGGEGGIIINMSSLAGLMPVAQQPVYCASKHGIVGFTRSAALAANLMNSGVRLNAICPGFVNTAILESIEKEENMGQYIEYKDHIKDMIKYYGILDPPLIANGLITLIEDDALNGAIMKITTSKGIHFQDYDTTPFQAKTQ
Metric name: IC50 (nM)

Challenge: Would you kindly share the measured IC50 for O=C1NC(=O)/C(=C/c2ccc(OC3CCCCC3)cc2)S1 ?
Response given: 822

I = O=C1NC(=O)/C(=C/c2ccc(OCCc3ccccn3)cc2)S1
II = O=C1NC(=O)/C(=C/c2ccc(OCC3CCC(C(=O)O)CC3)cc2)S1 (stereo not drawn)
Challenge: I'm curious, which of these has a smaller IC50 number: I or II ? // output: label of the selected item
Response given: I

---

pIC50: −log10 of the molar value.
Below are pIC50 values measured for 15-PGDH (Homo sapiens (Human), UniProt P15428).
Metric name: pIC50

Challenge: Would you kindly share the measured pIC50 for O=C1NC(=O)/C(=C/c2ccc(OCCC3CCCC3)c(Cl)c2)S1 ?
Response given: 7.00

P = O=C1NC(=O)/C(=C/c2ccc(OCCc3ccccc3)cc2)S1
Q = Cc1cc(/C=C2\SC(=O)NC2=O)ccc1OCCC1CCCCC1
Challenge: pIC50 comparison. Which is larger, P or Q ? // output: label of the selected item
Response given: Q
(Q: 7.26, P: 6.93)
